Molecular target: T1, huIgG1 monoFc tagged GALV gp70 protein (residues 42-474) (Gibbon ape leukemia virus, UniProt P21415 42-474)
T1 construct: also called gp70 (42-474)
T1 sequence: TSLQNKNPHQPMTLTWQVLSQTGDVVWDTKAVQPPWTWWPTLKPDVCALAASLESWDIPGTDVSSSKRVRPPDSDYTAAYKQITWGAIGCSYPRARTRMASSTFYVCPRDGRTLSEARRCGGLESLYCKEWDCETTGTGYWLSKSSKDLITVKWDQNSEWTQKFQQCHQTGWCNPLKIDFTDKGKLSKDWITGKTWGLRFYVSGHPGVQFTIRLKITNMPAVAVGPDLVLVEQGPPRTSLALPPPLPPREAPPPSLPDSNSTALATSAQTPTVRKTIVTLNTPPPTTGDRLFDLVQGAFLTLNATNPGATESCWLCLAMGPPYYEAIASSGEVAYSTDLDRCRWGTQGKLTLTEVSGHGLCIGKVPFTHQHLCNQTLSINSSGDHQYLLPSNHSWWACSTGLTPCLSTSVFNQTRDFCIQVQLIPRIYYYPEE
Test: BLI Octet Red96; antibody on AMC biosensor, 100 nM monoFc-gp70(42-474) analyte
property_name: kon (M⁻¹ s⁻¹)
Reply numerically in M⁻¹ s⁻¹, unit not repeated.

# query: kon of entry 4F1 (antibody, V domains shown, Anti-GALV gp70; One id for the hybridoma supernatant and the recombinant murine IgG2a antibody; also called 4F1-HC / 4F1-LC1) VH: QVQLQQPGAELVRPGSSVKLSCKASGYTFTSYWMDWMKQRPGQGLEWIGHIYPSDSETHYNQKFKDRATLTVDKSSSAAFMQLSSLTSEDSAVYYCARDYYWGQGTTLTVSS VL: QAVVTQESALTTSPGETVTLTCRSSTGAVTTSNYANWVQEKPDHLFTGLIGGTNNRAPGVPARFSGSLIGDKAALTITGAQTEDEAIYFCALWYSNHLVFGGGTKLTVLQ
359000

# query: kon of entry 9G11 (antibody, V domains shown, Anti-GALV gp70; One id for the hybridoma supernatant and the recombinant murine IgG2a antibody; also called 9G11-HC / 9G11-LC) VH: QVQLQQPGAELVRPGSSVKLSCKASGYTFTNYWMDWVKQRPGQGLEWIGHIYPSDSETHYIQKFKDKATLTVDKSSNTAYMQLSSLTSEDSAVYYCARDYYWGQGTTLTVSS VL: QAVVTQESALTTSPGETVTLTCRSSTGAVTTSNYANWVQEKPDHLFTGLIGGTNNRAPGVPARFSGSLIGDKAALTITGAQTEDEAIYFCALWYSSQLVFGGGTKLTVLQ
366000

# query: kon of entry 9A1 (antibody, V domains shown, Anti-GALV gp70; One id for the hybridoma supernatant and the recombinant murine IgG2a antibody; also called 9A1-HC3 / 9A1-LC1) VH: QVQLQQPGAELVRPGSSVRLSCKASGYTFTSYWMDWVKQRPGQGLEWIGNIYPSDSETHYNQKFKDKATLTVDKSSSTAYMQLSSLTSEDSAVYYCARDYYWGQGTTLTVSS VL: QAVVTQESALTTSPGETVTLTCRSSTGAVTRSNYANWVQEKPDHLFTGLIGGTNNRAPGVPARFSGSLIGDKAALTITGAQTEDEAIYFCALWYSNHLVFGGGTKLTVLQ
318000

# query: kon of entry 2D3 (antibody, V domains shown, Anti-GALV gp70; One id for the hybridoma supernatant and the recombinant murine IgG2a antibody; also called 2D3-HC1 / 2D3-LC1) VH: QVQLQQPGAELVRPGSSVKLSCKASGYTFTNYWMDWVKQRPGQGLEWIGNIYPSDSETHYNQKFRDKATLTVDKPSSTAYMQLSSLTSEDSAVYYCARDYYWGQGTTLTVSS VL: QAVVTQESALTTSPGETVTLTCRSSTGAVTTSNYANWVQEKPDHLFTGLIGGTNNRALGVPARFSGSLIGDKAALTITGAQIEDEAIYFCALWYSNHLVFGGGTKLTVLQ
281000
